# tested-on: rat α3β4 nAChRs (Rattus norvegicus, UniProt P04757+P12392)
# Construct: expressed in transfected cells
# Sequence (P04757 26-499): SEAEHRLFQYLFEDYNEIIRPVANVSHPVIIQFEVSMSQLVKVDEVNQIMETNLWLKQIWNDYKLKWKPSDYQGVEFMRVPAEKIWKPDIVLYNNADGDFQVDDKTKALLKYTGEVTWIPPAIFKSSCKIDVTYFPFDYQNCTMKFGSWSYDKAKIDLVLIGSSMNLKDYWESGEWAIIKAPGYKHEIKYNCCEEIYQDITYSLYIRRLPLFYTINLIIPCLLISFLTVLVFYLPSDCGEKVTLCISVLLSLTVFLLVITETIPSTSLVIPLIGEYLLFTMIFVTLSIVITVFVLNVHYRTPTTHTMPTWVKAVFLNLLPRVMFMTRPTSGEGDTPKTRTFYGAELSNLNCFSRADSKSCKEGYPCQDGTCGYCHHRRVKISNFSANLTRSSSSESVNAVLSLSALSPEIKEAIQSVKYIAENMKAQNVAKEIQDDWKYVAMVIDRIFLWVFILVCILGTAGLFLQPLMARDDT
# Sequence (P12392 21-495): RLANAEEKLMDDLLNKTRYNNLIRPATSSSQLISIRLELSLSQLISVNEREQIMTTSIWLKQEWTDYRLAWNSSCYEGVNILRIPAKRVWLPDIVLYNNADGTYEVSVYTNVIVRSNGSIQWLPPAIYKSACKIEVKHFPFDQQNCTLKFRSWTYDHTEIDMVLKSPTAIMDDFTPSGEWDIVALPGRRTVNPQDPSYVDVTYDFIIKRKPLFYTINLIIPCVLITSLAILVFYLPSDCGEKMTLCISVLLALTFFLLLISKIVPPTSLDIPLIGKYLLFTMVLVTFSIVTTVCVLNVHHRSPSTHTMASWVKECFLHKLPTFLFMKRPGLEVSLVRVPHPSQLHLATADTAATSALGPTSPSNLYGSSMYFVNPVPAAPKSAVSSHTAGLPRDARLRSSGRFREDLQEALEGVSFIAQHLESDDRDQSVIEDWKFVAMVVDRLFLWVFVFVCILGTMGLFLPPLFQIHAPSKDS
# experiment-description: cell-based
# Assay type: cell-based
# condition-description: inhibition of 86Rb+ efflux stimulated by 100 μM nicotine, KXα3β4R2 cells; mean ± standard error
# Description: Cell Culture. The cell line KXα3β4R2 was established previously by stably cotransfecting human embryonic kidney-293 cells with the rat α3 and β4 nAChR subunits genes (Xiao et al., 1998). […] ^86Rb^+ Efflux Assay. Function of nAChRs expressed in the transfected cells was measured using a ^86Rb^+ efflux assay as described previously (Xiao et al., 1998). […] Radioactivity of assay samples and lysates was measured by liquid scintillation counting. […]
Counter-ions that a name gives are not always drawn.
endpoint: pIC50
// scale note: pIC50 = -log10(conc_M); give the bare number

# annotated cases, reported pIC50 shown
CCC(=O)O[C@](Cc1ccccc1)(c1ccccc1)[C@H](C)CN(C)C [Propoxyphene, (+)-α-propoxyphene hydrochloride] = 5.57
CCC1=N[C@@H](C)CC1(c1ccccc1)c1ccccc1 [(−)-EMDP, hydrochloride] = 5.20
COc1ccc2c(c1)[C@]13CCCC[C@@H]1[C@H](C2)N(C)CC3 [Dextromethorphan] = 5.05
CCC(=O)C(C[C@H](C)N(C)C)(c1ccccc1)c1ccccc1.Cl [(+)-Methadone, S-(+)-methadone hydrochloride] = 5.60
CCC(=O)O[C@](Cc1ccccc1)(c1ccccc1)[C@H](C)CNC [Norpropoxyphene, (+)-α-N-norpropoxyphene maleate] = 5.74

Given the compound CN1CC[C@@]23CCCC[C@@H]2[C@@H]1Cc1ccc(O)cc13 [Dextrorphan] and test system rat α3β4 nAChRs (Rattus norvegicus, UniProt P04757+P12392), the measured pIC50 is 4.53

rat α3β4 nAChRs (Rattus norvegicus, UniProt P04757+P12392) pIC50 of CC[C@H](OC(C)=O)C(C[C@H](C)N(C)C)(c1ccccc1)c1ccccc1.Cl [LAAM, (−)-α-acetylmethadol hydrochloride] is 5.60

Lab entry: rat α3β4 nAChRs (Rattus norvegicus, UniProt P04757+P12392) assay, compound CCC1=[N+](C)[C@@H](C)CC1(c1ccccc1)c1ccccc1 [(−)-EDDP] , pIC50 = 6.40

The reported rat α3β4 nAChRs (Rattus norvegicus, UniProt P04757+P12392) pIC50 of CCC1=N[C@H](C)CC1(c1ccccc1)c1ccccc1 [(+)-EMDP, hydrochloride] is 5.24

Here C[C@]12N[C@H](Cc3ccccc31)c1ccccc12 [MK-801] was tested on rat α3β4 nAChRs (Rattus norvegicus, UniProt P04757+P12392), and its pIC50 came to 4.58
